biological target: MAP3K5 (human); test: radiometric filter-binding kinase assay; conditions: compound 1.0 µM
Property measured: residual activity (%)
Please reply with the bare figure in % and do not write the unit itself.

Example cases with answers are listed next.
Compound	Target desc	Value observed
NC(=O)c1cc(-c2ccnc(NC3CCCCC3)c2)nc(N2CCNCC2)c1	MAP3K5 (human)	84
COc1ccc(-n2ncc3cnc(Nc4cc(OC)c(OC)c(OCCCN5CCN(C)CC5)c4)nc32)cc1	MAP3K5 (human)	77
NC(=O)c1c(NC(=O)C2CC2)sc2c1CCCC2	MAP3K5 (human)	106
O=c1c(O)c(-c2ccc(O)c(O)c2)oc2cc(O)c(O)c(O)c12	MAP3K5 (human)	118

(Q) GET /values?readout=residual activity&item= O=C(NOCC(O)CO)c1ccc(F)c(F)c1Nc1ccc(I)cc1Cl (stereo not given)
(A) 102
